readout.kind: Ki (nM)
Write the answer as a number in nM, unit excluded.

Lab note: need Ki for CC(=O)Nc1ccc(S(N)(=O)=O)cc1Br on UniProtKB P00915, anyone have it?
3400

Checklist item: Ki tested on UniProtKB P00915, entry Nc1c(F)cc(S(=O)(=O)Nc2nnc(S(N)(=O)=O)s2)cc1Cl , value?
1.4

Kindly state the measured Ki obtained for Nc1ccc(S(=O)(=O)Nc2nnc(S(N)(=O)=O)s2)cc1Cl with UniProtKB P00915.
Sequence (P00915 whole entry): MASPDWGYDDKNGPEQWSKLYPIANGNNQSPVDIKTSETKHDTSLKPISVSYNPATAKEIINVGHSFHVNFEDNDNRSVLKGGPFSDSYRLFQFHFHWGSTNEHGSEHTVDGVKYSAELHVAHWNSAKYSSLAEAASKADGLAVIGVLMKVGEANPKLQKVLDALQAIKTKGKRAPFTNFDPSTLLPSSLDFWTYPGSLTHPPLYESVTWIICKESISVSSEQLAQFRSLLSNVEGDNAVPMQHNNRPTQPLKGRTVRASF
2.5

# get_value(readout= Ki, system= UniProtKB P00915) for CC(=O)Nc1ccc(S(=O)(=O)Nc2nnc(S(N)(=O)=O)s2)cc1I
5.2

# value lookup — system UniProtKB P00915, readout Ki, item CC(=O)Nc1ccc(S(=O)(=O)Nc2nnc(S(N)(=O)=O)s2)cc1F
5.7

Param readout = Ki; param system = UniProtKB P00915; param query = CC(=O)Nc1ccc(S(N)(=O)=O)cc1I ; response: value
3300
